Source of measurements: ChEMBL document CHEMBL1629475

test system: Staphylococcus aureus; experiment: Antibacterial activity against Staphylococcus aureus RN 4220 after 20 hrs by twofold serial dilution technique; type: functional; conditions: RN 4220, 20 h
Reported MIC values follow for various molecules
Numeric answer only, unit mg/L assumed.

Cc1ccc(C(=O)/C=C/c2ccc(/C=C3/SC(=S)N(CC(=O)O)C3=O)cc2)cc1 | 64
O=C(O)CN1C(=O)/C(=C\c2ccc(/C=C/C(=O)c3ccc([N+](=O)[O-])cc3)cc2)SC1=S | 4
O=C(O)CN1C(=O)/C(=C\c2ccc(/C=C/C(=O)c3ccc(F)cc3)cc2)SC1=S | 4
O=C(O)CN1C(=O)/C(=C\c2ccc(/C=C/C(=O)c3cccc(Cl)c3)cc2)SC1=S | 64
O=Cc1ccc(/C=C/C(=O)c2ccc(Cl)cc2Cl)cc1 | 64

Data request: Identify MIC associated with the molecule O=C(O)CN1C(=O)/C(=C\c2ccc(/C=C/C(=O)c3ccc(Br)cc3)cc2)SC1=S
Data returned: 4

Data request: Identify MIC associated with the molecule CCn1cc(C(=O)O)c(=O)c2cc(F)c(N3CCNCC3)cc21
Data returned: 2

Data request: Identify MIC associated with the molecule O=C(O)CN1C(=O)/C(=C\c2ccc(/C=C/C(=O)c3ccc(Cl)cc3Cl)cc2)SC1=S
Data returned: 2

Data request: Identify MIC associated with the molecule O=C(O)CN1C(=O)/C(=C\c2ccc(/C=C/C(=O)c3cccc(Br)c3)cc2)SC1=S
Data returned: 8

Data request: Identify MIC associated with the molecule COc1ccc(C(=O)/C=C/c2ccc(/C=C3/SC(=S)N(CC(=O)O)C3=O)cc2)cc1
Data returned: 64

Data request: Identify MIC associated with the molecule O=C(O)CN1C(=O)/C(=C\c2ccc(/C=C/C(=O)c3cccc(F)c3)cc2)SC1=S
Data returned: 64

Data request: Identify MIC associated with the molecule Cc1onc(-c2ccccc2)c1C(=O)N[C@@H]1C(=O)N2[C@@H]1SC(C)(C)[C@@H]2C(=O)O
Data returned: 1

Data request: Identify MIC associated with the molecule COc1cccc(C(=O)/C=C/c2ccc(/C=C3/SC(=S)N(CC(=O)O)C3=O)cc2)c1
Data returned: 8

Data request: Identify MIC associated with the molecule O=C(O)CN1C(=O)/C(=C\c2ccc(/C=C/C(=O)c3ccccc3)cc2)SC1=S
Data returned: 32
